Collected pIC50 values appear next to each entry.
Tested on: U937 cancer cell line
Assay: Cell inhibition assay (SRB cell viability), U937
Assay type: cell-based
Details: Homo sapiens, U-937, U937 cells, 72 h, IC50 range
pIC50: −log10 of the molar value.

O=C(CCCCCCC(=O)N1CCc2c([nH]c3ccc(OCC(=O)N[C@H](C(=O)O)c4ccccc4)cc23)C1)NO [Compound 25]
< 5.48
CCOC(=O)[C@H](Cc1ccccc1)NC(=O)[C@@H]1Cc2c([nH]c3ccccc23)CN1C(=O)CCCCCCC(=O)NO [Compound 7]
5.48 to 6.48
CC(C)C[C@H](NCc1cccc(NC(=O)CCCCCCC(=O)NO)c1)C(=O)OC1CCCC1 [Compound 39]
> 6.48
O=C(CCCCCCC(=O)N1Cc2[nH]c3ccccc3c2[C@H](C(=O)N[C@@H](Cc2ccccc2)C(=O)OC2CCCC2)C1)NO [Compound 58]
5.48 to 6.48
CC(C)(C)[C@H](NCc1ccc(CNCc2ccc3cc(C(=O)NO)sc3c2)cc1)C(=O)OC1CCCC1 [Compound 115]
5.48 to 6.48
O=C(CCCCCCC(=O)Nc1cccc(OCCCN[C@@H](Cc2ccccc2)C(=O)OC2CCCC2)c1)NO [Compound 75]
> 6.48
O=C(CCCCCCC(=O)N1CCc2c([nH]c3ccccc23)C1CN[C@H](C(=O)O)c1ccccc1)NO (stereo partly drawn) [Compound 43]
< 5.48
CCOC(=O)[C@H](Cc1ccccc1)NC(=O)C1CCCN1C(=O)CCCCCCC(=O)NO (stereo partly drawn) [Compound 55]
< 5.48

Ask: Any idea what its pIC50 is? The compound is CCOC(=O)[C@H](Cc1ccccc1)NCc1cccc(NC(=O)CCCCCCC(=O)NO)c1 [Compound 26]
Reply: 5.48 to 6.48

Ask: Any idea what its pIC50 is? The compound is CCOC(=O)[C@@H](NC(=O)[C@@H]1Cc2ccccc2CN1C(=O)CCCCCCC(=O)NO)c1ccccc1 [Compound 46]
Reply: 5.48 to 6.48

Ask: Any idea what its pIC50 is? The compound is CCOC(=O)[C@H](Cc1ccccc1)NCc1cncc(NC(=O)CCCCCCC(=O)NO)c1 [Compound 66]
Reply: < 5.48

----------
Tested on: U937 cancer cell line
Assay: Cell inhibition assay (SRB cell viability), U937
Type: cell-based
Settings: Homo sapiens, U-937, U937 cells, 72 h, IC50 range
Collected IC50 values appear next to each entry.

O=C(CCCCCCC(=O)Nc1cccc(OCCN[C@@H](Cc2ccccc2)C(=O)OC2CCCC2)c1)NO
< 330 nM
O=C(CCCCCCC(=O)N1Cc2[nH]c3ccccc3c2C[C@@H]1C(=O)N[C@H](C(=O)OC1CCCC1)c1ccccc1)NO
330 to 3300 nM
O=C(CCCCCCC(=O)Nc1cccc(C(=O)N[C@H](C(=O)OC2CCCC2)c2ccccc2)c1)NO
330 to 3300 nM

Ask: Any idea what its IC50 is? The compound is C[C@H](NCc1ccc(CNCc2ccc3cc(C(=O)NO)sc3c2)cc1)C(=O)OC1CCCC1
Reply: < 330 nM

Ask: Any idea what its IC50 is? The compound is CC(C)(C)OC[C@H](NCc1cccc(NCc2ccc3cc(C(=O)NO)sc3c2)c1)C(=O)OC1CCCC1
Reply: 330 to 3300 nM

Ask: Any idea what its IC50 is? The compound is O=C(CCCCCCC(=O)N1Cc2ccccc2C[C@H]1C(=O)N[C@@H](Cc1ccccc1)C(=O)O)NO
Reply: 330 to 3300 nM

Ask: Any idea what its IC50 is? The compound is O=C(NO)c1cc2ccc(CNCc3ccc(CN4CCC[C@H]4C(=O)OC4CCCC4)cc3)cc2s1
Reply: < 330 nM

----------
Molecular target: histone deacetylase activity (HeLa nuclear extract)
Construct: Histone deacetylase activity from crude nuclear extract derived from HeLa cells was used for screening
Test: HDAC fluorescent activity assay (Biomol Fluor de Lys), HeLa nuclear extract
Format: biochemical
Settings: Fluor de Lys substrate, IC50 range
pIC50: −log10 of the molar value.
Collected pIC50 values appear next to each entry.

COc1ccc2[nH]c3c(c2c1)CCN(C(=O)CCCCCCC(=O)NO)C3C(=O)N[C@H](C(=O)OC1CCCC1)c1ccccc1 (stereo partly drawn) [Compound 13]
6.00 to 7.00
CCOC(=O)[C@H](CC(C)C)NC(=O)[C@@H]1Cc2ccccc2CN1C(=O)CCCCCCC(=O)NO
< 6.00
CC(C)C[C@H](NC(=O)c1cccc(NC(=O)CCCCCCC(=O)NO)c1)C(=O)O
6.00 to 7.00

Ask: Any idea what its pIC50 is? The molecule is O=C(CCCCCCC(=O)N1Cc2ccccc2C[C@H]1C(=O)N[C@H](C(=O)OC1CCCC1)c1ccccc1)NO
Reply: 6.00 to 7.00

Ask: Any idea what its pIC50 is? The molecule is O=C(CCCCCNC(=O)c1cccc(CN[C@H](C(=O)OC2CCCC2)c2ccccc2)c1)NO
Reply: 6.00 to 7.00

Ask: Any idea what its pIC50 is? The molecule is CC(C)(C)OC[C@H](NCc1cccc(NCc2ccc3cc(C(=O)NO)sc3c2)c1)C(=O)OC1CCCC1
Reply: 6.00 to 7.00

Ask: Any idea what its pIC50 is? The molecule is O=C(NO)c1cc2ccc(CNCc3ccc(CN[C@@H](Cc4ccc(O)cc4)C(=O)OC4CCCC4)cc3)cc2s1
Reply: > 7.00

----------
System: U937 cancer cell line
Experiment: Cell inhibition assay (SRB cell viability), U937
Assay type: cell-based
Settings: Homo sapiens, U-937, U937 cells, 72 h, IC50 range
pIC50: −log10 of the molar value.
Attribute measured: pIC50

Example compounds with recorded pIC50:
O=C(CCCCCCC(=O)Nc1ccccc1CN[C@H](C(=O)O)c1ccccc1)NO [Compound 41]
< 5.48
O=C(CCCCCCC(=O)Nc1ccc(CN[C@H](C(=O)OC2CCCC2)c2ccccc2)cc1)NO [Compound 20]
> 6.48
O=C(CCCCCCC(=O)Nc1cccc(CN[C@H](C(=O)O)c2ccccc2)c1)NO [Compound 37]
< 5.48
O=C(NO)c1cc2ccc(CNCc3ccc(CN[C@H](C(=O)OC4CCCC4)C4CCCCC4)cc3)cc2s1 [Compound 116]
5.48 to 6.48
O=C(CCCCCCC(=O)Nc1cccc(OCCCN[C@H](C(=O)OC2CCCC2)c2ccccc2)c1)NO [Compound 77]
> 6.48

Ask: Any idea what its pIC50 is? The compound is CC(C)(C)OC[C@H](NCc1ccc(CNCc2ccc3cc(C(=O)NO)sc3c2)cc1)C(=O)OC1CCCC1 [Compound 109]
Reply: > 6.48

Ask: Any idea what its pIC50 is? The compound is O=C(CCCCCCC(=O)N1CCCC1C(=O)N[C@H](C(=O)OC1CCCC1)c1ccccc1)NO (some centres unmarked) [Compound 53]
Reply: < 5.48

Ask: Any idea what its pIC50 is? The compound is O=C(CCCCCCC(=O)Nc1cccc(OCCCC(=O)N[C@H](C(=O)OC2CCCC2)c2ccccc2)c1)NO [Compound 92]
Reply: 5.48 to 6.48

----------
Test system: U937 cancer cell line
Assay: Cell inhibition assay (SRB cell viability), U937
Type: cell-based
Conditions: Homo sapiens, U-937, U937 cells, 72 h, IC50 range
Attribute measured: IC50

Example compounds with recorded IC50:
O=C(NO)c1cc2ccc(CNc3cccc(CN[C@H](C(=O)OC4CCCC4)C4CCCCC4)c3)cc2s1
330 to 3300 nM
O=C(CCCCCCC(=O)Nc1cccc(CNC(=O)N[C@@H](Cc2ccccc2)C(=O)OC2CCCC2)c1)NO
> 3300 nM
COc1ccc2[nH]c3c(c2c1)CCN(C(=O)CCCCCCC(=O)NO)C3C(=O)N[C@H](C(=O)O)c1ccccc1 (stereo partly drawn)
> 3300 nM
O=C(CCCCCCC(=O)N1CCc2ccc(C(=O)N[C@H](C(=O)OC3CCCC3)c3ccccc3)cc2C1)NO
330 to 3300 nM
CC(C)(C)OC(=O)[C@H](Cc1ccccc1)NCc1cncc(NC(=O)CCCCCCC(=O)NO)c1
330 to 3300 nM

Ask: Any idea what its IC50 is? The compound is O=C(CCCCCCC(=O)N1CCc2c([nH]c3ccccc23)C1C(=O)N[C@H](C(=O)O)c1ccccc1)NO (stereo partly drawn)
Reply: > 3300 nM

Ask: Any idea what its IC50 is? The compound is O=C(CCCCCCC(=O)Nc1cccc(CN[C@@H](Cc2ccccc2)C(=O)OC2CCCC2)c1)NO
Reply: 330 to 3300 nM

Ask: Any idea what its IC50 is? The compound is O=C(CCCCCCC(=O)Nc1cccc(CN[C@H](C(=O)OC2CCCC2)c2ccccc2)c1)NO
Reply: < 330 nM

Ask: Any idea what its IC50 is? The compound is CC(C)(C)OC[C@H](NCc1ccc(NC(=O)CCCCCCC(=O)NO)cc1)C(=O)OC1CCCC1
Reply: < 330 nM

Ask: Any idea what its IC50 is? The compound is O=C(CCCCCCC(=O)Nc1ccc(CN[C@H](C(=O)OC2CCCC2)C2CCCCC2)cc1)NO
Reply: < 330 nM

Ask: Any idea what its IC50 is? The compound is CC(C)(C)OC[C@H](NCc1cccc(NC(=O)CCCCCCC(=O)NO)c1)C(=O)OC1CCCC1
Reply: < 330 nM

Ask: Any idea what its IC50 is? The compound is O=C(NO)c1cc2ccc(CNCc3ccc(CN[C@@H](Cc4ccccc4)C(=O)OC4CCCC4)cc3)cc2s1
Reply: < 330 nM

Ask: Any idea what its IC50 is? The compound is O=C(CCCCCCC(=O)N1CCc2c([nH]c3ccc(OCC(=O)N[C@H](C(=O)OC4CCCC4)c4ccccc4)cc23)C1)NO
Reply: > 3300 nM

Ask: Any idea what its IC50 is? The compound is CC(C)C[C@H](NC(=O)c1ccc(NC(=O)CCCCCCC(=O)NO)cc1)C(=O)OC1CCCC1
Reply: 330 to 3300 nM

Ask: Any idea what its IC50 is? The compound is O=C(CCCCCCC(=O)Nc1ccc(S(=O)(=O)N[C@H](C(=O)O)c2ccccc2)cc1)NO
Reply: > 3300 nM
